tested on: MDA-MB-435; experiment: NCI tumour cell line growth inhibition, 48 h
Recorded TGI split into classes A (below 5 µM), B (5 µM to below 20 µM), C (20 µM or more)

# example entries with known answers
{"columns": ["molecule", "tgt", "assigned class"],
 "data": [
  ["C#Cc1cccc(Nc2ncnc3cc(NC(=O)CCl)ccc23)c1", "MDA-MB-435", "B"],
  ["c1cc(N[C@@H]2CCNC2)nc(-c2cnc3ccc(-c4cn[nH]c4)cn23)c1", "MDA-MB-435", "C"],
  ["COc1cc(/C=C/C(=O)c2cccc(-n3cc(-c4cc(OC)c(OC)c(OC)c4)[nH]c3=O)c2)cc(OC)c1OC", "MDA-MB-435", "B"],
  ["COC(=O)C1(NC(=O)C(Cc2ccccc2)N(C(=O)OC(C)(C)C)C(=O)OC(C)(C)C)CCCC1 (stereo not drawn)", "MDA-MB-435", "C"],
  ["C[N+](C)(CCCCCC[N+](C)(C)CCCN1C(=O)c2cccc3cccc(c23)C1=O)CCCN1C(=O)c2cccc3cccc(c23)C1=O", "MDA-MB-435", "C"],
  ["CN1CCN(CC(=O)N(C)c2ccc(N=C(c3ccccc3)c3c(O)[nH]c4ccc(C#N)cc34)cc2)CC1", "MDA-MB-435", "A"],
  ["Cc1cc(=O)oc2ccc(OC/C=C3\\CCC(=O)O3)cc12", "MDA-MB-435", "C"],
  ["CCN(CC)c1ccc(/C=C/C(=O)c2ccc(Nc3nc(Nc4ccccc4)nc(Nc4ccccc4)n3)cc2)cc1", "MDA-MB-435", "C"]
]}

Which category fits this record: Oc1ccc(Cl)cc1C(c1cc(Cl)ccc1O)C(Cl)(Cl)Cl
A

Which category fits this record: COc1ccc2nc3cc(Cl)ccc3c(NCCCNCCO)c2c1
A

Which category fits this record: Nc1nc(NNc2cccc(F)c2)cc(=O)[nH]1
C

Which category fits this record: CSc1ncnc2c1cnn2Cc1cnnn1COCC(O)CO (stereo not drawn)
C

Which category fits this record: CCCCN(CCCC)C(=O)[C@H](CC)[C@@H]1CC[C@@H](C)[C@@H]([C@H](C)[C@@H](O)[C@@H](C)C(=O)[C@H](CC)C2O[C@]3(C=C[C@@H](O)[C@]4(CC[C@@](C)([C@H]5CC[C@](O)(CC)[C@H](C)O5)O4)O3)[C@H](C)C[C@@H]2C)O1 (stereo partly drawn)
B

Which category fits this record: CCOCC1(COCC)CCC(c2[nH]ncc2CN(C)CCNC)CC1
C

Which category fits this record: O=C(NCCN1CCCCC1)c1ccc(Br)cc1
C

Which category fits this record: CCOC(=O)CSc1cc(Cl)c(C)cc1S(=O)(=O)/N=C(/N=C/c1ccc([N+](=O)[O-])s1)NNC
C

Which category fits this record: COc1ccc(C2c3cc4c(cc3OC(NNc3ccccc3)C2C)OCO4)cc1 (stereo not drawn)
C

###

system: DU-145 prostate; experiment: NCI tumour cell line growth inhibition, 48 h
assay endpoint: GI50

Below: 4 compounds and their reported GI50.
{"columns": ["mol smiles", "reported"],
 "data": [
  ["C[C@@]1([C@H](OC(=O)c2ccccc2)C(N)=O)CO1", "27.2 µM"],
  ["CSc1ccc(C2=C(c3ccccc3)C(=O)OC2)cc1", "4.49 µM"],
  ["C#Cc1cccc(Nc2ncnc3cc(NC(=O)CCl)ccc23)c1", "2.8 µM"],
  ["COc1cc2oc(-c3cccc(C(=O)Nc4ccc(Cl)cc4)c3)cc(=O)c2c(OC)c1OC", "2.85 µM"]
]}

Record COc1ccc2nc3cc(Cl)ccc3c(NCCCNCCO)c2c1 has DU-145 prostate GI50 equal to 0.48 µM

Record O=C(Nc1ccc(Oc2ccc(F)cc2)cc1)[C@@H]1C[C@@H](Cc2ccc(F)cc2)CN1C(=O)Cn1ccnn1 has DU-145 prostate GI50 equal to 13.6 µM

###

test system: K-562 leukemia; assay: NCI tumour cell line growth inhibition, 48 h
Where a SMILES comes first, the peptide text is derived from it. The star is where a group is joined. Trt = c1ccc(C(c2ccccc2)(c2ccccc2)*)cc1; Cbz = O=C(OCc1ccccc1)*
assay endpoint: TGI

{"columns": ["compound", "tgt", "reported"],
 "data": [
  ["CC(C)C1CNC(=O)C2(C=NC(C(C)C)CNC(=O)C3(C=N1)CCCO3)CCCO2 (stereo not given)", "K-562 leukemia", "> 10 µM"],
  ["O=C1NC(=S)S/C1=C\\c1cn(-c2ccccc2)nc1-c1ccccc1", "K-562 leukemia", "> 100 µM"],
  ["O=C1NC2NC3NC(=O)NC3NC2N1 (stereo not given)", "K-562 leukemia", "> 100 µM"],
  ["COC(=O)C(CO)NC(=O)C(CSC(c1ccccc1)(c1ccccc1)c1ccccc1)NC(=O)OCc1ccccc1 (stereo not given) (Cbz-Cys(Trt)-Ser-OMe; configuration not given here)", "K-562 leukemia", "> 49 µM"]
]}

Record COc1cccc(/C=C/C(=O)c2ccc3cc(OC)ccc3c2)c1 has K-562 leukemia TGI equal to > 50 µM

Record Cc1ccc(C(=O)CC2(O)C(=O)Nc3c(C)cc(Cl)cc32)cc1 (stereo not given) has K-562 leukemia TGI equal to > 100 µM

Record CC(C)(C)c1cc(CCC(=O)Nc2ccc(Cl)cc2)[nH]c(=S)n1 has K-562 leukemia TGI equal to > 100 µM

###

test system: NCI/ADR-RES ovarian; assay: NCI tumour cell line growth inhibition, 48 h
TGI by entry:

{"columns": ["mol smiles", "TGI"],
 "data": [
  ["Cn1cc(/C=C\\[N+](=O)[O-])c2ccccc21", "> 100 µM"],
  ["CN1CCN(CC(=O)N(C)c2ccc(N=C(c3ccccc3)c3c(O)[nH]c4ccc(C#N)cc34)cc2)CC1", "60.1 µM"]
]}

response.value for Clc1ccc(Cl)c(N=Nc2cc3c4c(c2)CCN4CCC3)c1 (field: TGI) = > 10 µM

response.value for COc1nc(N=P(c2ccccc2)(c2ccccc2)c2ccccc2)cc(=O)n1C (field: TGI) = > 100 µM

response.value for COc1ccc(/C=c2\c(=O)[nH]c3nc4ccccc4c(=O)n23)cc1 (field: TGI) = > 100 µM

###

TGI by entry:
system: DLD-1 colon; assay: NCI tumour cell line growth inhibition, 48 h

{"columns": ["molecule", "tgt", "TGI"],
 "data": [
  ["COC(=O)CCSC(=O)Nc1ccc(N=Nc2ccccc2)cc1", "DLD-1 colon", "> 100 µM"],
  ["O=Cc1c[nH]c2c(=O)[nH]cnc12", "DLD-1 colon", "> 100 µM"]
]}

response.value for CCOC(=O)Cc1cc(OC)c(OC)cc1/C(Cl)=C(\CO)c1ccc(OC)c(OC)c1 (field: TGI) = > 100 µM

response.value for O=S(O)CCCCCSSc1ccccc1 (field: TGI) = > 100 µM

response.value for OCC#CCNCl (field: TGI) = > 100 µM

response.value for O=C(Cc1ccccc1)NN1C(=O)C(Cl)C1c1ccccc1Cl (configuration not stated) (field: TGI) = > 100 µM

response.value for O=C1C(c2ccccc2)=C(c2ccccc2)C(c2ccc(Cc3ccc(C4=C(c5ccccc5)C(=O)C(c5ccccc5)=C4c4ccccc4)cc3)cc2)=C1c1ccccc1 (field: TGI) = > 100 µM

response.value for O=NN1C(c2ccccc2)CNC(=O)CC1c1ccccc1 (configuration not stated) (field: TGI) = > 100 µM

response.value for CC1=C(c2nc3ccccc3s2)C(=O)OC1(C)C (field: TGI) = > 100 µM

response.value for N#C/C(=C\c1ccncc1)c1csc2ccccc12 (field: TGI) = 96.9 µM

response.value for COc1ccccc1NC(=O)C1=C(C)NC(C)=C(C(=O)Nc2ccccc2OC)C1c1ccccc1[N+](=O)[O-] (field: TGI) = 36.5 µM

response.value for Cc1cc2ncn(-c3nc4ccccc4nc3C(C#N)S(C)(=O)=O)c2cc1C (configuration not stated) (field: TGI) = > 100 µM

response.value for Cc1ccc(NC(=O)CCc2nc(=S)[nH][nH]2)cc1 (field: TGI) = > 100 µM

response.value for CCOC(=O)c1c2ccc(/C=C/c3ccccn3)ccc-2c(C(=O)OCC)c1N (field: TGI) = > 100 µM

response.value for COC1=C(N)C(=O)c2nc(-c3nc(C(=O)O)c(C)c(-c4ccc(OC)c(OC)c4O)c3N)ccc2C1=O (field: TGI) = 0.0524 µM

response.value for CC1=CC2C(C=C1)S(=O)(=O)N1CC21c1ccccc1 (configuration not stated) (field: TGI) = > 100 µM

response.value for Cn1c(CBr)nc2c1C(=O)c1nc(CBr)[nH]c(=O)c1C2=O (field: TGI) = > 100 µM

###

system: OVCAR-8 ovarian; assay: NCI tumour cell line growth inhibition, 48 h
Where a SMILES comes first, the peptide text is derived from it. The star is where a group is joined. Trt = c1ccc(C(c2ccccc2)(c2ccccc2)*)cc1; Cbz = O=C(OCc1ccccc1)*
assay endpoint: TGI (µM)
// units = µM; emit number, no label

Below: 3 molecules and their reported TGI.
{"columns": ["molecule", "tgt", "assay endpoint", "reported"],
 "data": [
  ["COC(=O)C(CO)NC(=O)C(CSC(c1ccccc1)(c1ccccc1)c1ccccc1)NC(=O)OCc1ccccc1 (stereo not given) (Cbz-Cys(Trt)-Ser-OMe; configuration not given here)", "OVCAR-8 ovarian", "TGI", 36.5],
  ["Nc1nc(Nc2ccc(Cl)c(Cl)c2)nc2nc[nH]c12", "OVCAR-8 ovarian", "TGI", 28],
  ["O=C(Nc1ccc(Oc2ccc(F)cc2)cc1)[C@@H]1C[C@@H](Cc2ccc(F)cc2)CN1C(=O)Cn1ccnn1", "OVCAR-8 ovarian", "TGI", 31.9]
]}

# ---- query molecule ----
response.value for C#Cc1cccc(Nc2ncnc3cc(NC(=O)CCl)ccc23)c1 (field: TGI) = 6.58
